Tested on: Escherichia coli
testSummary: Ratio of antibacterial activity against Escherichia coli ATCC 25922 in presence of FeCl3 to antibacterial activity against Escherichia coli ATCC 25922
Format: functional
Where a SMILES comes first, the peptide text is derived from it.
Reported Ratio values are given for each entry in this list.

Readout Ratio for CC[C@H](C)[C@H](NC(=O)[C@H](CCCNC(=N)N)NC(=O)[C@H](CCCCN)NC(=O)[C@H](CC(C)C)NC(=O)[C@H](CC(C)C)NC(=O)CN)C(=O)N[C@@H](CCCCN)C(=O)N[C@H](C(=O)N[C@@H](CC(C)C)C(=O)N[C@@H](CC(C)C)C(N)=O)[C@@H](C)O [ANOPLIN] (H-GLLKRIKTLL-NH2) , test system Escherichia coli, was 2 - 4

Readout Ratio for CCCCCCCCCCCC(=O)NCC(=O)N[C@@H](CC(C)C)C(=O)N[C@@H](CC(C)C)C(=O)N[C@H](CCCCN)C(=O)N[C@@H](CCCNC(=N)N)C(=O)N[C@H](C(=O)N[C@H](CCCCN)C(=O)N[C@H](C(=O)N[C@@H](CC(C)C)C(=O)N[C@@H](CC(C)C)C(N)=O)[C@@H](C)O)[C@@H](C)CC , test system Escherichia coli, was 2 - 4

Others:
Readout Ratio for CCCCCCCC(=O)NCC(=O)N[C@@H](CC(C)C)C(=O)N[C@@H](CC(C)C)C(=O)N[C@H](CCCCN)C(=O)N[C@@H](CCCNC(=N)N)C(=O)N[C@H](C(=O)N[C@H](CCCCN)C(=O)N[C@H](C(=O)N[C@@H](CC(C)C)C(=O)N[C@@H](CC(C)C)C(N)=O)[C@@H](C)O)[C@@H](C)CC , test system Escherichia coli, was 2 - 4

* * *

Reported Ratio values are given for each entry in this list.
System: Escherichia coli
testSummary: Ratio of antibacterial activity against Escherichia coli ATCC 25922 in presence of FeCl3 to antibacterial activity against Escherichia coli ATCC 25922
Format: functional
Where a SMILES comes first, the peptide text is derived from it. Bridges are numbered along the chain shown (N, C = ends). [ ]: non-standard residue; d: D form. The star is where a group is joined. X1 = CC[C@H](C)CCCCC(=O)*; Dab = NCC[C@H](N)C(=O)O

Readout Ratio for CC[C@H](C)CCCCC(=O)N[C@@H](CCN)C(=O)N[C@H](C(=O)N[C@@H](CCN)C(=O)N[C@H]1CCNC(=O)[C@H]([C@@H](C)O)NC(=O)[C@H](CCN)NC(=O)[C@H](CCN)NC(=O)[C@H](CC(C)C)NC(=O)[C@@H](Cc2ccccc2)NC(=O)[C@H](CCN)NC1=O)[C@@H](C)O (X1-[Dab]T[Dab][Dab][Dab][dF]L[Dab][Dab]T; lactam 4-C) , test system Escherichia coli, was 2 - 4

Others:
Readout Ratio for CCCCCCCCCC(=O)NCC(=O)N[C@@H](CC(C)C)C(=O)N[C@@H](CC(C)C)C(=O)N[C@H](CCCCN)C(=O)N[C@@H](CCCNC(=N)N)C(=O)N[C@H](C(=O)N[C@H](CCCCN)C(=O)N[C@H](C(=O)N[C@@H](CC(C)C)C(=O)N[C@@H](CC(C)C)C(N)=O)[C@@H](C)O)[C@@H](C)CC , test system Escherichia coli, was 2 - 4

* * *

Tested on: Staphylococcus aureus
testSummary: Antibacterial activity against Staphylococcus aureus ATCC 25923 after 18 hrs by CLSI based broth microdilution method
Type: functional
experimentalConditions: ATCC 25923, 18 h
Where a SMILES comes first, the peptide text is derived from it. Bridges are numbered along the chain shown (N, C = ends). [ ]: non-standard residue; d: D form. The star is where a group is joined. X1 = CC[C@H](C)CCCCC(=O)*; Dab = NCC[C@H](N)C(=O)O
Reported MIC values are given for each entry in this list.
Numbers only; they are read as µM.

Take a look at these entries with their results.
The compound identified as CCCCCCCC(=O)NCC(=O)N[C@@H](CC(C)C)C(=O)N[C@@H](CC(C)C)C(=O)N[C@H](CCCCN)C(=O)N[C@@H](CCCNC(=N)N)C(=O)N[C@H](C(=O)N[C@H](CCCCN)C(=O)N[C@H](C(=O)N[C@@H](CC(C)C)C(=O)N[C@@H](CC(C)C)C(N)=O)[C@@H](C)O)[C@@H](C)CC registered its MIC at 32

The compound identified as CC[C@H](C)[C@H](NC(=O)[C@H](CCCNC(=N)N)NC(=O)[C@H](CCCCN)NC(=O)[C@H](CC(C)C)NC(=O)[C@H](CC(C)C)NC(=O)CN)C(=O)N[C@@H](CCCCN)C(=O)N[C@H](C(=O)N[C@@H](CC(C)C)C(=O)N[C@@H](CC(C)C)C(N)=O)[C@@H](C)O [ANOPLIN] (H-GLLKRIKTLL-NH2) registered its MIC at 64

The compound identified as CC[C@H](C)CCCCC(=O)N[C@@H](CCN)C(=O)N[C@H](C(=O)N[C@@H](CCN)C(=O)N[C@H]1CCNC(=O)[C@H]([C@@H](C)O)NC(=O)[C@H](CCN)NC(=O)[C@H](CCN)NC(=O)[C@H](CC(C)C)NC(=O)[C@@H](Cc2ccccc2)NC(=O)[C@H](CCN)NC1=O)[C@@H](C)O (X1-[Dab]T[Dab][Dab][Dab][dF]L[Dab][Dab]T; lactam 4-C) registered its MIC at 16

The compound identified as CCCCCCCCCCCC(=O)NCC(=O)N[C@@H](CC(C)C)C(=O)N[C@@H](CC(C)C)C(=O)N[C@H](CCCCN)C(=O)N[C@@H](CCCNC(=N)N)C(=O)N[C@H](C(=O)N[C@H](CCCCN)C(=O)N[C@H](C(=O)N[C@@H](CC(C)C)C(=O)N[C@@H](CC(C)C)C(N)=O)[C@@H](C)O)[C@@H](C)CC registered its MIC at 4

Now consider the entry below.
The compound identified as CCCCCCCCCC(=O)NCC(=O)N[C@@H](CC(C)C)C(=O)N[C@@H](CC(C)C)C(=O)N[C@H](CCCCN)C(=O)N[C@@H](CCCNC(=N)N)C(=O)N[C@H](C(=O)N[C@H](CCCCN)C(=O)N[C@H](C(=O)N[C@@H](CC(C)C)C(=O)N[C@@H](CC(C)C)C(N)=O)[C@@H](C)O)[C@@H](C)CC registered its MIC at 8
